Cited source: ChEMBL document CHEMBL4765411

System: HeLa
Protocol description: Antiproliferative activity against human HeLa cells assessed as growth inhibition at 20 uM viability after 72 hrs by SRB assay relative to control
Format: functional
Test settings: read-out: GI
Quantity: inhibition of growth at 20 µM

Sc1nc2ccccc2s1 [2-MERCAPTOBENZOTHIAZOLE]
7.9%
Nc1ccc2oc(-c3ccc4ncsc4c3)nc2c1
58%
COc1ccc(-c2nc3cc(N)ccc3o2)cc1
42.6%
Oc1ccccc1-c1nc2ccccc2s1
8.1%

Shift focus to the following entry.
Enquiry: Which value of inhibition of growth at 20 µM has been reported for CCOc1ccc(-c2nc3cc(N)ccc3o2)cc1 in the records?
Return: 5.8%

* * *

Tested on: HEK293
Protocol description: Cytotoxicity against human HEK293 cells assessed as reduction in cell viability after 72 hrs by SRB assay
Format: cell-based
Test settings: HEK293, 72 h
Quantity: IC50

Enquiry: Which value of IC50 has been reported for Nc1ccc2oc(-c3ccc4nc(N)sc4c3)nc2c1 in the records?
Return: > 20 µM

* * *

Tested on: HeLa
Protocol description: Antiproliferative activity against human HeLa cells assessed as growth inhibition at 20 uM viability after 72 hrs by SRB assay relative to control
Assay type: functional
Test settings: read-out: GI
For each record, write down the corresponding inhibition of growth at 20 µM.
Answers are plain numbers, in %.

Answered examples (4):
COc1ccc(-c2nc3ccccc3s2)cc1
0.1
Nc1nc2c(Br)cccc2s1
1.7
Nc1nc2ccc(-c3nc4ccccc4s3)cc2s1
47.8
Nc1cc(N)cc(-c2nc3ccccc3[nH]2)c1
34.5

Record inhibition of growth at 20 µM for all entries; do not skip any.
1. Nc1ccc(Br)cc1-c1nc2ccccc2s1
2. c1ccc2oc(-c3ccc4ncsc4c3)nc2c1
3. O=[N+]([O-])c1cccc(-c2nc3ccccc3s2)c1

Return:
[0.8, 49.2, 4.4]

Record inhibition of growth at 20 µM for all entries; do not skip any.
1. Nc1cccc(-c2nc3ccccc3s2)c1
2. c1ccc(-c2nc3ccccc3s2)cc1 [2-PHENYLBENZO[D]THIAZOLE]
3. Nc1ccc(-c2nc3ccccc3o2)cc1

Return:
1. 1.7
2. 2.6
3. 19.3

* * *

System: HeLa
Protocol description: Antiproliferative activity against human HeLa cells assessed as growth inhibition at 20 uM viability after 72 hrs by SRB assay relative to control
Assay type: functional
Test settings: read-out: GI
For each record, write down the corresponding inhibition of growth at 20 µM.
Give bare numbers, in %.

Answered examples (3):
Brc1cccc(-c2nc3ccccc3s2)c1
2.6
Nc1ccc2oc(-c3cccnc3)nc2c1
1.3
Nc1ccc2oc(-c3cc(Cl)ccc3Cl)nc2c1
-0.2

Record inhibition of growth at 20 µM for all entries; do not skip any.
1. CN(C)c1ccc(-c2nc3cc(N)ccc3o2)cc1
2. c1cncc(-c2nc3ccccc3s2)c1
3. Nc1ccc2oc(-c3ccc4nc(N)sc4c3)nc2c1
4. O=C(Nc1nc2ccccc2s1)c1cccnc1Cl
5. Brc1ccc(-c2nc3ccccc3s2)cc1
6. Nc1ccc(-c2nc3ccccc3[nH]2)cc1
7. Oc1c(Br)cc(Br)cc1-c1nc2ccccc2s1
8. Nc1ccc(-c2nc3cc(N)ccc3o2)cc1

Return:
8.9
4.4
81.1
5.5
5.5
1.9
4
1.2

Record inhibition of growth at 20 µM for all entries; do not skip any.
1. COc1ccc2nc(N)sc2c1
2. Nc1ccc(O)c(-n2nc3ccc(N)cc3n2)c1
3. COc1cccc2sc(N)nc12

Return:
1. -3.4
2. 7.1
3. 0.6
